System: Hepatitis B virus
Assay: Antiviral activity against HBV infected in human HepG2.2.15 cells assessed as inhibition of hepatitis B surface antigen secretion by ELISA
Assay type: functional, organism-based
Conditions: HepG2 2.2.15
metric_name: pIC50
Worth noting: pIC50 values are minus log10 of concentrations stated in mol/L.

// known answers, use as guide
>>> result("C=C1CC[C@@H]2[C@](C)(COC(=O)/C=C/c3ccccc3)[C@H](O)CC[C@@]2(C)[C@@H]1/C=C/C1=CCOC1=O")
4.74
>>> result("C=C1CC[C@@H]2[C@](C)(CO)[C@H](OC(=O)c3cccnc3)CC[C@@]2(C)[C@@H]1C/C=C1\\C=COC1=O")
3.58
>>> result("C=C1CC[C@@H]2[C@](C)(COC(C)=O)[C@H](O)CC[C@@]2(C)[C@@H]1C/C=C1\\C=COC1=O")
3.55
>>> result("C=C1CC[C@@H]2[C@](C)(COC(=O)CCCC)[C@H](O)CC[C@@]2(C)[C@@H]1C/C=C1\\C=COC1=O")
3.25
>>> result("C=C1CC[C@@H]2[C@](C)(C=O)[C@H](O)CC[C@@]2(C)[C@@H]1/C=C/C1=CCOC1=O")
2.74

Kindly review the next compound as well.
*Q* Please give the measured pIC50 for this compound: C=C1CC[C@H]2[C@@](C)(CCC(=O)[C@@]2(C)C=O)[C@@H]1C/C=C1/C(=O)OC[C@H]1O
*A* 3.02
